- assay-summary: Long-term/accelerated stability of crystal forms
- Assay type: physicochemical
- experimental-context: 25 °C/60% RH, 6 months, sealed in aluminum foil bag
readout-type: Purity% (%)

| molecule | readout-type | quantitative-result |
| --- | --- | --- |
| C[C@H]1COc2c(-c3nc(N[C@@H]4CCOC[C@H]4O)ncc3Cl)cc(F)c3nc(C(C)(C)O)n1c23 [Free-state amorphous form] | Purity% | 98.8 |
| C[C@H]1COc2c(-c3nc(N[C@@H]4CCOC[C@H]4O)ncc3Cl)cc(F)c3nc(C(C)(C)O)n1c23 [Crystal form E] | Purity% | 99.9 |
| C[C@H]1COc2c(-c3nc(N[C@@H]4CCOC[C@H]4O)ncc3Cl)cc(F)c3nc(C(C)(C)O)n1c23 [Crystal form G] | Purity% | 99.9 |
| C[C@H]1COc2c(-c3nc(N[C@@H]4CCOC[C@H]4O)ncc3Cl)cc(F)c3nc(C(C)(C)O)n1c23 [Crystal form D] | Purity% | 99.9 |
| C[C@H]1COc2c(-c3nc(N[C@@H]4CCOC[C@H]4O)ncc3Cl)cc(F)c3nc(C(C)(C)O)n1c23 [Crystal form F] | Purity% | 99.9 |

====

- assay-summary: Long-term/accelerated stability of crystal forms
- Assay type: physicochemical
- experimental-context: 40 °C/75% RH, 2 months, sealed in aluminum foil bag
readout-type: Purity% (%)

| molecule | output-unit | quantitative-result |
| --- | --- | --- |
| C[C@H]1COc2c(-c3nc(N[C@@H]4CCOC[C@H]4O)ncc3Cl)cc(F)c3nc(C(C)(C)O)n1c23 [Crystal form F] | % | 99.9 |
| C[C@H]1COc2c(-c3nc(N[C@@H]4CCOC[C@H]4O)ncc3Cl)cc(F)c3nc(C(C)(C)O)n1c23 [Crystal form D] | % | 99.9 |
| C[C@H]1COc2c(-c3nc(N[C@@H]4CCOC[C@H]4O)ncc3Cl)cc(F)c3nc(C(C)(C)O)n1c23 [Crystal form E] | % | 99.9 |
| C[C@H]1COc2c(-c3nc(N[C@@H]4CCOC[C@H]4O)ncc3Cl)cc(F)c3nc(C(C)(C)O)n1c23 [Free-state amorphous form] | % | 98.9 |
| C[C@H]1COc2c(-c3nc(N[C@@H]4CCOC[C@H]4O)ncc3Cl)cc(F)c3nc(C(C)(C)O)n1c23 [Crystal form H] | % | 99.95 |
| C[C@H]1COc2c(-c3nc(N[C@@H]4CCOC[C@H]4O)ncc3Cl)cc(F)c3nc(C(C)(C)O)n1c23 [Crystal form G] | % | 99.9 |

====

pIC50: −log10 of the molar value.
The reader will find pIC50 measurements below, all made with CYP2D6 (Homo sapiens).
Sequence (P10635 whole entry): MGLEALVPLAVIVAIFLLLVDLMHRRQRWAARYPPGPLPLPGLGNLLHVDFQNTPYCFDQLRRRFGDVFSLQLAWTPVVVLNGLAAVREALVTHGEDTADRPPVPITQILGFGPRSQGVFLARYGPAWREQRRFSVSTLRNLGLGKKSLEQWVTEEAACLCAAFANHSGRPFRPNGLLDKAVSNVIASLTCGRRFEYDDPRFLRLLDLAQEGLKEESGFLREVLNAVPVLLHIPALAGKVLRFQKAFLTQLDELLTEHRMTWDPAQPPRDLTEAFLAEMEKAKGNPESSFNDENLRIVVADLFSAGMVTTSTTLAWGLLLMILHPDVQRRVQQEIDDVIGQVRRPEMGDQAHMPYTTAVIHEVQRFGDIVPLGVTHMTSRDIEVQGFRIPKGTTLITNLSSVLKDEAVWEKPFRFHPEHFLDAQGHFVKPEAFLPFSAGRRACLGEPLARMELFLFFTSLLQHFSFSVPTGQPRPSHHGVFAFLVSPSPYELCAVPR

| compound | system-name | pIC50 |
| --- | --- | --- |
| C[C@@H]1COc2c(-c3nc(N[C@@H]4CCOC[C@H]4O)ncc3Cl)cc(F)c3nc(C(C)(C)O)n1c23 (single isomer, unassigned) [Isomer 2 with a retention time of 1.887 min] | CYP2D6 (Homo sapiens) | < 4.52 |

Input: Which pIC50 value is on record for C[C@H]1COc2c(-c3nc(N[C@@H]4CCOC[C@H]4O)ncc3Cl)cc(F)c3nc(C(C)(C)O)n1c23 (single isomer, unassigned) [Isomer 1 with a retention time of 2.078 min] ?
Output: < 4.52
